Molecular target: T1, human C-KIT-Fc (human, UniProt P10721 26-524)
T1 construct: also called biotinylated human C-KIT-Fc; not shown: Fc part not described
Assay: HTRF competition vs Tb-h37M IgG1
result type: IC50 (µg/mL)
Write the value in µg/mL as a bare number.

These recorded examples may help you get a feel for the data.
{"binder": "D-A10 (antibody, IgG1, V domains shown, IgG1; also called C-KIT-D-A10) VH: QVQLVQSGAEVKKPGASVKVSCKASGYTFTDYYMNWVRQAPGQGLEWMGRIYPGSGNTYYAQKFQGRVTMTRDTSTSTVYMELSSLRSEDTAVYYCARGVYYFDTWGQGTLVTVSS VL: DIQMTQSPSSLSASVGDRVTITCRASQGVRTNLAWFQQKPGKAPKSLIYAASSRQSGVPSRFSGSGSGTDFTLTISSLQPEDFATYYCQQYNSYPRTFGGGTKVEIK", "output unit": "µg/mL", "reported value": 0.027}
{"binder": "E-E10 (antibody, IgG1, V domains shown, IgG1; also called C-KIT-E-E10) VH: QVQLVQSGAEVKKPGASVKVSCKASGYTFTDYYMNWVRQAPGQGLEWMGRIYPGSGNTYYAQKFQGRVTMTRDTSTSTVYMELSSLRSEDTAVYYCARGVWYFDYWGQGTLVTVSS VL: DIQMTQSPSSLSASVGDRVTITCRASQGVRTNVAWFQQKPGKAPKSLIYSASSLQSGVPSRFSGSGSGTDFTLTISSLQPEDFATYYCQQYNSYPRTFGGGTKVEIK", "output unit": "µg/mL", "reported value": 0.031}

// next item, IC50 requested
Data request: Quick check: IC50 of humanized h37M, human IgG1 (antibody, V domains shown, human IgG1; terbium-labelled as the tracer of the HTRF assays; also called C-KIT-h37M; h37M-IgG1) VH: QVQLVQSGAEVKKPGASVKLSCKASGYTFTDYYINWVRQAPGKGLEWIARIYPGSGNTYYNEKFKGRATLTADKSTSTAYMQLSSLRSEDTAVYFCARGVYYFDYWGQGTTVTVSS VL: DIVMTQSPSSLSASVGDRVTITCKASQNVRTNVAWYQQKPGKAPKALIYSASYRYSGVPDRFTGSGSGTDFTLTISSLQPEDFADYFCQQYNSYPRTFGGGTKVEIK ?
Data returned: 0.025
